# Procedure Summary: Compound A pharmacokinetics after oral administration of a single dose with and without ritonavir, human subjects, fed
# Type: in vivo
# Condition Parameters: plasma, po, 3000 mg, single oral dose 3000 mg, without ritonavir, geometric mean, read-out: AUC (area under the concentration-time curve from time 0 to infinity)
Endpoint Name: AUC

# get_value(readout='AUC', item= C=CCNC(=O)[C@H]1N(C(=O)[C@@H](O)[C@H](Cc2ccccc2)NC(=O)c2cccc(O)c2C)CSC1(C)C )
86400 ng·h/mL

----------
# Procedure Summary: Compound A pharmacokinetics after oral administration of a single dose with and without ritonavir, human subjects, fed
# Type: in vivo
# Condition Parameters: plasma, po, 800 mg, single oral dose 800 mg, without ritonavir, geometric mean
Endpoint Name: Cmax
A bare number is not enough; add the unit after it.

# get_value(readout='Cmax', item= C=CCNC(=O)[C@H]1N(C(=O)[C@@H](O)[C@H](Cc2ccccc2)NC(=O)c2cccc(O)c2C)CSC1(C)C )
3120 ng/mL
